Test: Solubility studies of nano-curcumin in water
Assay type: physicochemical
Conditions: deionized water
Test Readout: solubility at 24 h (µg/mL)
Form entry: value (µg/mL) — number only.

**Q:** I am curious: what solubility at 24 h value has been reported for COc1cc(/C=C/C(=O)CC(=O)/C=C/c2ccc(O)c(OC)c2)ccc1O ?
**A:** 0.98

====

Test: Solubility studies of nano-curcumin in water
Format: physicochemical
Details: deionized water, water, thermodynamic from solid
Test Readout: solubility thermodynamic at 24 h (µM)
Form entry: value (µM) — number only.

**Q:** I am curious: what solubility thermodynamic at 24 h value has been reported for COc1cc(/C=C/C(=O)CC(=O)/C=C/c2ccc(O)c(OC)c2)ccc1O ?
**A:** 2.68

Source: paper PMC10363772
